Value source: patent US8389545B2

# TGT: acetylcholine muscarinic M1 receptor (Homo sapiens)
# Construct: Geneticin selection)
# PROCEDURE SUMMARY: muscarinic FLIPR assay: intracellular calcium in CHOnfat/hM1 cells with EC20 acetylcholine
# SETTINGS: FLIPR Ca2+, 4 min preincubation then EC20 acetylcholine (3 nM final)
pEC50: −log10 of the molar value.
Rule: rule met for pEC50 not less than 6, rule not met for anything less.

These solved cases illustrate the format of a correct answer.
(Q) Has O=C(O)c1cn(Cc2c(F)cccc2F)c2c(F)ccc(F)c2c1=O a recorded pEC50 greater than or equal to 6?
(A) rule met

(Q) Now try O=C(O)c1cn(Cc2ccc(O)cc2)c2ccccc2c1=O .
(A) rule met

***
(Q) Quick check, pEC50 >= 6? COc1cccc(Cn2cc(C(=O)O)c(=O)c3c(F)ccc(F)c32)c1
(A) rule not met

###

Each item that follows carries a reported pEC50.
# TGT: acetylcholine muscarinic M1 receptor (Homo sapiens, UniProt P11229)
# Construct: Geneticin selection)
# Sequence (P11229 1-460): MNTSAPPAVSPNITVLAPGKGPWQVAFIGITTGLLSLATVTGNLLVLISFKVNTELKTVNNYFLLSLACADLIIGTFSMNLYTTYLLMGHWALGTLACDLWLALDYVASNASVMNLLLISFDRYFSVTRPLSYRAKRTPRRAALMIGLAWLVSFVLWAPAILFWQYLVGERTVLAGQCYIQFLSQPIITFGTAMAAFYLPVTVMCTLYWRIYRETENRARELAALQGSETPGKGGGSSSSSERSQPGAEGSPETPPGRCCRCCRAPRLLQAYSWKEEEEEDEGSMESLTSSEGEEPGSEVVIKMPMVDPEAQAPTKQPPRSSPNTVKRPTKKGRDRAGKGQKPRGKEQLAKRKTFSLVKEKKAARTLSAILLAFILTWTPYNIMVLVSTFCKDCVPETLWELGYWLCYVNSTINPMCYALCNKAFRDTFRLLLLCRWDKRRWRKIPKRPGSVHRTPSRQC
# PROCEDURE SUMMARY: muscarinic FLIPR assay: intracellular calcium in CHOnfat/hM1 cells with EC20 acetylcholine
# SETTINGS: FLIPR Ca2+, 4 min preincubation then EC20 acetylcholine (3 nM final)
Quick note: pEC50 values are minus log10 of concentrations in mol/L.

Check out these entries, answers already filled in.
(Q) Data request, read-out pEC50, for COc1ccc(Cn2cc(C(=O)O)c(=O)c3cccc(F)c32)cc1C(F)(F)F [Example 44]
(A) 6.10

(Q) Moving on to O=C(O)c1cn(Cc2ccc(C(F)(F)F)cc2)c2c(F)cccc2c1=O [Example 52]
(A) 6.01

# evaluate next
(Q) Field request: pEC50 | item: COc1ccc(Cn2cc(C(=O)O)c(=O)c3cccc(F)c32)cc1 [Example 5]
(A) 5.94
